Each entry below carries its reported efflux ratio at 2 h.
- target: human MDR1 (P-gp) (Homo sapiens (Human), UniProt P08183)
- Sequence (P08183 whole entry): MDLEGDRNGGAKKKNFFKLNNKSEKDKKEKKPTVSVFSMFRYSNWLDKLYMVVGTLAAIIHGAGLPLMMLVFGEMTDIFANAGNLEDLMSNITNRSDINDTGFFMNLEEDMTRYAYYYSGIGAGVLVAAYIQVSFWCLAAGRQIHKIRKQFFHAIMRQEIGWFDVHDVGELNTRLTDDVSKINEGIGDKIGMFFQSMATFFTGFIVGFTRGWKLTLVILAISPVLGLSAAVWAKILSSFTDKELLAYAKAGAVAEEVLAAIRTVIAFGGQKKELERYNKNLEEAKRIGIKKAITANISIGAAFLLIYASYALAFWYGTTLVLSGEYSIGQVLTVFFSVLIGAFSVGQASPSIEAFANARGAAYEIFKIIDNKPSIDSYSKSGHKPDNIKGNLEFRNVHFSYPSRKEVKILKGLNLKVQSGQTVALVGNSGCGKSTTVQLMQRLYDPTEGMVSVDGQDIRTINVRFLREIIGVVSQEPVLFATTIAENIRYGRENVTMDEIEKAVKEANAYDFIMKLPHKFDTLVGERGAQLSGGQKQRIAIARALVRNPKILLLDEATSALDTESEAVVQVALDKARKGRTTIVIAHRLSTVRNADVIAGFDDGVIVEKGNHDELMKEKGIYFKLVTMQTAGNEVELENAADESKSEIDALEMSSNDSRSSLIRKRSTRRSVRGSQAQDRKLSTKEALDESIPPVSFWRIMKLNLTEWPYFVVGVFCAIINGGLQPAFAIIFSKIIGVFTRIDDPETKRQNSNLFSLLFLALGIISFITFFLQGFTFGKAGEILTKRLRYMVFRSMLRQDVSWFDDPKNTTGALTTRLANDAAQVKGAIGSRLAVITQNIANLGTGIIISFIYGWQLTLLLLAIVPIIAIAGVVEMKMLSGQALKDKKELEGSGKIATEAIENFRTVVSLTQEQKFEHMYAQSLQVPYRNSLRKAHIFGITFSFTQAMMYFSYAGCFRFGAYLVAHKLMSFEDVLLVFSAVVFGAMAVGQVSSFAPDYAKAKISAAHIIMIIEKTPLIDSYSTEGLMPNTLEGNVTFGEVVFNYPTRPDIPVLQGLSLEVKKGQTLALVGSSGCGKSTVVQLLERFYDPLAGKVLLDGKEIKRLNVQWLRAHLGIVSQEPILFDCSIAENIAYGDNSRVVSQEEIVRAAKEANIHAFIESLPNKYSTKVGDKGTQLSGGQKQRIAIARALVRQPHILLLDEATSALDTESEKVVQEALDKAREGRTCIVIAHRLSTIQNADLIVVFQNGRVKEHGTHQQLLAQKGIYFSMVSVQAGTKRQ
- assay details: MDCK assay P-gp: permeability across MDCK-MDR1 monolayers
- Format: in vitro ADME
- reported conditions: pH 7.4, MDCK-MDR1, Papp (b-a) / Papp (a-b), read-out: efflux ratio PEBA/PEAB

molecule	efflux ratio at 2 h
CNC(=O)[C@@H]1CN(Cc2cnc(Oc3ccc(C)cc3)cn2)CCO1	0.7
CCNC(=O)[C@@H]1CN(Cc2cnc(Oc3ccc(F)cc3F)cn2)CCO1	0.4
CNC(=O)[C@@H]1CN(Cc2cnc(Oc3ccccc3F)cn2)CCO1	0.9
CNC(=O)[C@@H]1CN(Cc2cnc(Oc3ccc(C)cc3C)cn2)CCO1	0.7
